- study_system: RCL1 peptide/HLA-A*02:01 complex (recombinant) (human, UniProt P16213 21-119 (Pongo pygmaeus entry))
- protocol_description: SPR
readout_kind: binding result

[[record]]
binder = "AS170036 VL1VH1-VLH98V (scFv) scFv: QSALTQPRSVSGSPGQSVTISCAGTSSDVGSENYVSWYQQHPGKAPKLMIYQVNKRASGVPDRFSGSKSGNTASLTISGLQAEDEADYYCASYRSSDVNIVFGGGTKLTVLGGGGSGGGGSGGGGSEVQLVESGGGLVQPGGSLRLSCAASGFTFSSYAMSWVRQAPGKGLEWVSTINSGTGSPYYADSVKGRFTISRDNSKNTLYLQMNSLRAEDTAVYYCAKNFFDGSWFLGPPAMDYWGQGTLVTVSSHHHHHH"
val = "no binding"

[[record]]
binder = "AS170036 VL1VH1-VHG56F (scFv) scFv: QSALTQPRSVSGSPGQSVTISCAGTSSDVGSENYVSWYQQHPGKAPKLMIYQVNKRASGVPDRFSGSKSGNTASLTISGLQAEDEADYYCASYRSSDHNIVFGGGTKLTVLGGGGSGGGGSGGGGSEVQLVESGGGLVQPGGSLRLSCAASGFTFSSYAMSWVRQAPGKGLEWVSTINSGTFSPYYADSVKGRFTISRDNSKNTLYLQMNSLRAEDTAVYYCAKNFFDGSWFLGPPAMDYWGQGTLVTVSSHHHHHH"
val = "no binding"

